- target-system: UniProt:P15144
- Sequence (P15144 whole entry, species assumed): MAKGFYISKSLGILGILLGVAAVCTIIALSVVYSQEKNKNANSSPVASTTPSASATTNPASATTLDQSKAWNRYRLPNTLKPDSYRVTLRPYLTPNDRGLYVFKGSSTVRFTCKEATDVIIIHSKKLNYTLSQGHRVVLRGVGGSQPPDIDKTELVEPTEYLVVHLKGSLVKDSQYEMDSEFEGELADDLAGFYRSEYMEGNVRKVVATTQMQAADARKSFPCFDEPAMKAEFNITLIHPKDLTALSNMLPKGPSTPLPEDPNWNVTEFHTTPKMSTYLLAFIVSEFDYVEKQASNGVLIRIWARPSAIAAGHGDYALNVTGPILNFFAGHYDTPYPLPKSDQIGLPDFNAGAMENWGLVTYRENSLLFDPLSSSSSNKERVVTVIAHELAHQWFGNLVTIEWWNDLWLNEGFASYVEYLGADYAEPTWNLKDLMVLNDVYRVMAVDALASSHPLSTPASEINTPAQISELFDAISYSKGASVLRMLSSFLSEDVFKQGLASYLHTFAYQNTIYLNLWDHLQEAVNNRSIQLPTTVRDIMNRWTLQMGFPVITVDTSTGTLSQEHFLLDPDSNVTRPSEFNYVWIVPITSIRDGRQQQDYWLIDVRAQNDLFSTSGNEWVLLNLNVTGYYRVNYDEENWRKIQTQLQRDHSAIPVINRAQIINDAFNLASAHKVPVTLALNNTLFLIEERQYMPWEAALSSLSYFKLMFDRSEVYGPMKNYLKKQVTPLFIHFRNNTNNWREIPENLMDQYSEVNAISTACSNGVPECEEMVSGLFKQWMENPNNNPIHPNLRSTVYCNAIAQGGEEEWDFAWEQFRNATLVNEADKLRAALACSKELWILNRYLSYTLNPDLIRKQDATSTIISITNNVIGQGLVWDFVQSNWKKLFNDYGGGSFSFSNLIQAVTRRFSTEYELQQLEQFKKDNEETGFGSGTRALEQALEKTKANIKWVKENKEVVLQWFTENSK
- experimental-protocol: Inhibition of alanyl aminopeptidase enzymatic activity, fluorogenic substrate (Ala)2-rhodamine 110
- Format: biochemical
- condition-label: Table 2; read-out: IC50APN
Record form. Attribute: IC50. Fill in for each entry.
Form entry: value (µM) — number only.

Data request: Could you share what IC50 was measured for Cc1ccc(/C=N/NC(=O)c2nnn(-c3nonc3N)c2C)o1 , tested on UniProt:P15144?
Data returned: 10.9

Data request: Could you share what IC50 was measured for COC(=O)CCC/C=C1/SC[C@@H](NC(=O)c2ccccc2)/C1=N/O , tested on UniProt:P15144?
Data returned: 93.6

Data request: Could you share what IC50 was measured for N/C(=N/OS(=O)(=O)c1ccc(C(F)(F)F)cc1)C1CSCCS1 (centres unmarked) , tested on UniProt:P15144?
Data returned: 13.4

Data request: Could you share what IC50 was measured for Nc1nonc1-n1nnc(C(=O)N/N=C/c2ccco2)c1-c1ccccc1 , tested on UniProt:P15144?
Data returned: 46.6

Data request: Could you share what IC50 was measured for CCCCc1noc2c1/C(=N/O)CC(c1ccccc1)C2 (centres unmarked) , tested on UniProt:P15144?
Data returned: 2.2

Data request: Could you share what IC50 was measured for COCc1nnn(-c2nonc2N)c1C(=O)N/N=C/c1ccco1 , tested on UniProt:P15144?
Data returned: 12.5

Data request: Could you share what IC50 was measured for C/C(=N/O)c1ccc2c(c1)OCCOCCOc1cc(/C(C)=N\O)ccc1OCCOCCO2 , tested on UniProt:P15144?
Data returned: 8.6

Data request: Could you share what IC50 was measured for N/C(=N\N=C\c1ccco1)c1nonc1N , tested on UniProt:P15144?
Data returned: 14.6
